Here the recorded Percent Effect is given for each entry.
Tested system: Proteasome subunit beta (Trypanosoma cruzi) (UniProt O96673)
Sequence (whole entry): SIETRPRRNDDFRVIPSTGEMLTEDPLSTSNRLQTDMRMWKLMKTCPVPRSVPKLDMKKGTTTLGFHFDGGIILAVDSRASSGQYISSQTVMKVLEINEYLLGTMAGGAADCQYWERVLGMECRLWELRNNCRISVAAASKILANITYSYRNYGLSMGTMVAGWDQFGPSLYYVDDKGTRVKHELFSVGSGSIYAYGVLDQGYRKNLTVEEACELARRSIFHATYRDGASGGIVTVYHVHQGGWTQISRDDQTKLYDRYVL
Experiment summary: Trypanosoma cruzi proteasome chymotrypsin-like activity (TcProtChymo) assay.
Type: functional
Design: scale not given: in the data most compounds retested in dose-response had high values
Study conditions: 9.37 µM
Numbers only here, please. The scale is %.

As a guide, the following entries are already answered.
Compound	Output unit	Recorded number
CCN(C)c1ncnc2c1CCN(C(=O)N1CCCC1)CC2	%	17.6
Cc1noc(C)c1CN1C(=O)[C@H]2CC[C@@H]1CN(Cc1cccnc1N)C2	%	23
CSc1ncccc1C(=O)NCc1ccc(CS(=O)(=O)NC(C)C)cc1	%	15.4

// Percent Effect lookup, compound = OC(COCc1cccs1)CN1CCC(c2ccn[nH]2)CC1 (configuration not stated) , result: 8.6

// Percent Effect lookup, compound = CN(Cc1ccc(F)cc1)C(=O)CN1CCOC(Cn2cncn2)C1 (configuration not stated) , result: 17.6

// Percent Effect lookup, compound = N#Cc1ccccc1C(=O)N1CCC2(CC(=O)NC2=O)C1 (configuration not stated) , result: 14

// Percent Effect lookup, compound = O=C(CN1CCOC(Cn2cccn2)C1)NCc1cccs1 (configuration not stated) , result: 1.98

// Percent Effect lookup, compound = Cc1cnc2n(c1=O)CC(C(=O)Nc1ccccc1Cl)CS2 (configuration not stated) , result: 5.68

Values were extracted from ChEMBL document CHEMBL3988442.
